Target: Glucose transporter (Leishmania mexicana) (UniProt O61059)
Experiment: ST_JUDE_LEISH: Cytotoxicity at 2uM final concentration against transgenic Leishmania Mexicana promastigotes LmGT2 that are glucose transport deficient and complemented with the L. Mexicana glucose transporter 2. Activity is measured by DNA content using SYBR green in vitro
Format: functional
quantity_kind: inhibition (%)
Give bare numbers, in %.

// solved cases for inhibition follow
O=C(Nc1ccc(Cl)cc1)Nc1ccc(-c2ccc(-c3nc4ccccc4[nH]3)cc2)cc1: 0.96
CN(C(=O)c1snnc1-c1ccccc1)C1CCN(CCCCCNC(=O)/C=C/c2ccc(Cl)c(Cl)c2)CC1: 3.46
COc1ccc2c(c1)CC(NCc1ccc(-c3ccc4nc[nH]c4c3)cc1)C2 (centres undefined): 1.31

For every record below, what is its inhibition?
1. CCOc1ccc(C(=O)N2CCOC(CCN3CCC(c4ccccc4)CC3)(c3ccc(Cl)c(Cl)c3)C2)cc1 (centres undefined)
2. CCOc1c(OC)ccc2c1CCN(CCN1CCC(CNC(=O)c3ccc(-c4ccc(C#N)cc4)cc3)CC1)C2
3. Cc1cc(-c2cccc(CNC3CCN(C)CC3)c2)ccc1S(=O)(=O)NC1CCC1
4. CCN(CC)CCN(Cc1ccc(-c2ccc(C(F)(F)F)cc2)cc1)C(=O)Cn1c(CCc2cccc(F)c2F)cc(=O)cc1-c1ccccc1
5. CCCC1N=C(N)N=C(N)N1c1ccc(OC)cc1 (centres undefined)

4.6
1.45
0.45
-1.71
1.56

For every record below, what is its inhibition?
1. CC(C)CCCC(C)(C)NC[C@@H](O)[C@H](Cc1ccccc1)NC(=O)c1cc(NC(C)C)cc(N2CCCCS2(=O)=O)c1
2. COc1ccc2nc(C)cc(N/N=C/c3cccc([N+](=O)[O-])c3)c2c1
3. Cc1nn(CCOC(=O)NC(NCC2COc3ccccc3O2)C(Cl)(Cl)Cl)cc1[N+](=O)[O-] (centres undefined)
4. O=c1cc(NCCCNCc2sc(Br)c(Br)c2Br)[nH]c2ccccc12
5. CCCc1cccc(OC)c1OCCCON1C(N)=NC(N)=NC1(C)C
6. CC(C)c1ccc(CN2CCC(NC(=O)c3ccc(-c4cccc(F)c4)s3)CC2)cc1
7. O=C(NCc1ccc(C(=O)NC2CCCCC2)cc1)c1ccc(O)c(-c2ccc(Cl)c(Cl)c2)c1

[-3.27, 7.7, -1.73, 10.4, 0.81, -0.6, 1.41]

For every record below, what is its inhibition?
1. Cc1cccc2nc(-c3ccc(-c4cccc(CNCc5cccc(N)c5)c4)s3)[nH]c12
2. CC(C)C[C@H]1c2[nH]c3ccc(Cl)cc3c2CCN1C(=O)CCc1ccccc1
3. COc1cccc(Nc2nc(C)cc(NCc3ccc(-n4ccnc4)cc3)n2)c1
4. COc1ccc(Nc2ncc3c(-c4cccc(NC(=O)Cc5cccnc5)c4)c[nH]c3n2)cc1OC

1: 2.35; 2: -0.65; 3: 8.06; 4: -1.58
